molecular target: human CB1 receptor (Homo sapiens)
Sequence (P21554 whole entry): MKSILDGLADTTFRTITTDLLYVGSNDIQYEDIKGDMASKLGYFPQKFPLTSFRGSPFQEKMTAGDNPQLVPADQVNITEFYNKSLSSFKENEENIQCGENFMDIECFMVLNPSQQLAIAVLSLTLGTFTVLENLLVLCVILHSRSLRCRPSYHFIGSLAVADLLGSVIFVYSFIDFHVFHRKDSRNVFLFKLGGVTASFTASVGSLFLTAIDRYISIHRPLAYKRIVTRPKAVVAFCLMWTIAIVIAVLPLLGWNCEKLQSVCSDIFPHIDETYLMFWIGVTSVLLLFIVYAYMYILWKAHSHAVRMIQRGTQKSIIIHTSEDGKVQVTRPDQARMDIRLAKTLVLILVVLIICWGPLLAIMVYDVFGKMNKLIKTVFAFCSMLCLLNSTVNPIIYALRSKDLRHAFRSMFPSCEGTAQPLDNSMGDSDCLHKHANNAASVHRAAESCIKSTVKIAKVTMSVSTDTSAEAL
READOUT NAME: IC50 (nM)
Give a bare numeral; the unit nM is implied.

Some solved cases for reference:
INSERT INTO measurements (sample_smiles, number) VALUES
  ('Cc1c(Cl)cccc1C(=O)/N=c1\sc(C(C)(C)C)c(C)n1CC1CC1', 73),
  ('Cc1c(C(C)(C)C)s/c(=N\C(=O)c2c(Cl)cncc2Cl)n1CC1CC1', 336);

Kindly note: human CB1 receptor (Homo sapiens), CCOCCn1/c(=N/C(=O)c2cccc(Cl)c2C)cc(C(C)(C)C)n1C , IC50 value reported: 291

human CB1 receptor (Homo sapiens) IC50 of CCOCCn1c(C)c(C)s/c1=N\C(=O)c1cccc(C(F)(F)F)c1F is 18

Item Cc1c(F)cccc1C(=O)/N=c1\sc(C(C)(C)C)c(C)n1CC1CC1 ; assay system human CB1 receptor (Homo sapiens); IC50 reported as 168

Value (IC50, human CB1 receptor (Homo sapiens)) for record Cc1c(C(C)(C)C)s/c(=N\C(=O)C2CCCCC2)n1CC1CC1 = 98

Tested on human CB1 receptor (Homo sapiens): CCOCCn1c(C)c(C(C)C)s/c1=N\C(=O)c1cccc(C(F)(F)F)c1F . Observed IC50: 25

Reported IC50 (human CB1 receptor (Homo sapiens)) for entry COc1ccc(C(=O)/N=c2\sc(C(C)(C)C)c(C)n2CC2CC2)c(OC)c1 is 215

Reported IC50 (human CB1 receptor (Homo sapiens)) for entry Cc1ccnc(C)c1C(=O)/N=c1\sc(C(C)(C)C)c(C)n1CC1CC1 is 28

Cc1c(C(C)(C)C)s/c(=N\C(=O)c2c(C(F)(F)F)ccc(Cl)c2F)n1CC1CC1 tested on human CB1 receptor (Homo sapiens) gave IC50: 136

Entry Cc1c(C(C)(C)C)s/c(=N\C(=O)c2cccc(C(F)(F)F)c2Cl)n1CC1CC1 : IC50 on human CB1 receptor (Homo sapiens) = 19

GET /values?item= Cc1ccccc1C(=O)/N=c1\sc(C(C)(C)C)c(C)n1CC1CC1 &system= human CB1 receptor (Homo sapiens) returns IC50: 395

Lab entry: human CB1 receptor (Homo sapiens) assay, compound COc1cccc(F)c1C(=O)/N=c1\sc(C(C)(C)C)c(C)n1CC1CC1 , IC50 = 56

###

biological target: human CB2 receptor (Homo sapiens, UniProt P34972); construct: expressed in transfected cells; test: Human CB2 receptor binding inhibition test ([3H]CP-55,940, CHO membrane fractions); conditions: [3H]CP-55,940, membrane fractions of CHO cells stably expressing human CB2 receptor, 25° C., 2 hours; read-out: CB2 IC50 (Inhibition of binding to human CB2 receptor)
Sequence (P34972 whole entry): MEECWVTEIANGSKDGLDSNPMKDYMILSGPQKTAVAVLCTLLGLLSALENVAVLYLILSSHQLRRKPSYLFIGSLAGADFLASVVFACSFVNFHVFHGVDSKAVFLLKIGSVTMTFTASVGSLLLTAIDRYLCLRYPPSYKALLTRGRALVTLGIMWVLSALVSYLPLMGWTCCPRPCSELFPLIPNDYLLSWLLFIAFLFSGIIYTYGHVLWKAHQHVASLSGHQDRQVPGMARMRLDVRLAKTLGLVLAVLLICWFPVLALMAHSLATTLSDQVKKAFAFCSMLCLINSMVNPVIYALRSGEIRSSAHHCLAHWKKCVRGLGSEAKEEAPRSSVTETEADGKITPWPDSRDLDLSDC
Field: label. Allowed values: true (1) (IC50 < 10 nM) or false (0) (IC50 >= 10 nM).

(Q) Given Cc1c(Br)cccc1C(=O)/N=c1\sc(C(C)(C)C)c(C)n1C [compound 140] , is recorded IC50 strictly lower than 10 nM?
(A) true (1)

(Q) Lab note: IC50 threshold 10 nM. Does this compound come in strictly under it? Cc1c(C(C)(C)C)s/c(=N\C(=O)c2ccccc2F)n1CC1CC1 [compound 185]
(A) false (0)

(Q) # strict comparison: is reported IC50 < 10 nM? input = Cc1s/c(=N\C(=O)c2ccccc2Br)n(CC2CC2)c1C [compound 76]
(A) false (0)

(Q) Dear reviewer, please state whether Cc1c(C(C)(C)C)s/c(=N\S(=O)(=O)c2ccccc2C(F)(F)F)n1CC1CC1 [compound 411] has IC50 strictly beneath 10 nM.
(A) true (1)

(Q) Answer whether the compound COc1ccc(C(F)(F)F)cc1C(=O)/N=c1\sc(C(C)(C)C)nn1CC1CC1 [compound 509] has IC50 strictly less than 10 nM
(A) true (1)

###

Measured melting point, listed per entry.

Consider the worked cases shown below.
INSERT INTO measurements (sample_smiles, readout_name, result) VALUES
  ('Cc1cccc(Br)c1C(=O)/N=c1\oc(C(C)(C)C)c(C)n1CC1CC1', 'melting point', '89 to 90 °C'),
  ('COc1ccc(OC)c(C(=O)/N=c2\sc(C)c(C)n2CC2CC2)c1', 'melting point', '124 to 126 °C'),
  ('Cc1c(Cl)cccc1C(=O)/N=c1\sc(C(C)(C)C)c(C)n1CC1CC1', 'melting point', '88 to 90 °C'),
  ('CCOCCn1/c(=N/C(=O)c2cccc(Cl)c2C)cc(C(C)(C)C)n1C', 'melting point', '127 to 128 °C'),
  ('CC(C)c1s/c(=N\C(=O)c2cncc(Br)c2)n(CC2CC2)c1C(F)(F)F', 'melting point', '139 to 141 °C'),
  ('CCn1c(C)c(C(C)(C)C)s/c1=N\C(=O)CC1CCCC1', 'melting point', '149 to 150 °C');

# compound Cc1c(C(C)(C)C)s/c(=N\C(=O)c2ccc(F)c(Cl)c2F)n1CC1CC1 ; its melting point = 76 to 77 °C

Documented melting point of Cc1c(Br)cccc1C(=O)/N=c1\sc(C(C)(C)C)c(C)n1C : 143 to 144 °C

Entry CCC(CC)C(=O)/N=c1\sc(C)c(C)n1CC1CC1 ; melting point = 67 to 69 °C

CNc1ccccc1C(=O)/N=c1\sc(C(C)(C)C)c(C)n1CC1CC1 yielded melting point of 158 to 159 °C

In plain terms, Cc1c(C(C)(C)C)s/c(=N\C(=O)c2cc(Cl)ccc2Cl)n1CC1CC1 has a documented melting point of 129 to 131 °C

GET /value?item= Cc1c(C(C)(C)C)s/c(=N\C(=O)c2cccc(OC(F)(F)C(F)F)c2)n1CC1CC1 &field=melting point returns 109 to 111 °C

###

READOUT NAME: melting point

# annotated cases, reported melting point shown
INSERT INTO assay_data (sample_smiles, result) VALUES
  ('Cc1nc(F)ccc1C(=O)/N=c1\sc(C(C)(C)C)c(C)n1CC1CC1', '67 to 69 °C'),
  ('Cc1c(C(C)(C)C)s/c(=N\C(=O)c2cc3sccc3nc2C(F)(F)F)n1CC1CC1', '147 to 149 °C'),
  ('CCn1c(C)c(C(C)(C)C)s/c1=N\C(=O)C(F)(F)C(F)(F)C(F)(F)F', '113 to 115 °C'),
  ('Cc1c(Br)cccc1C(=O)/N=c1\sc(C(C)(C)C)c(C)n1CC1CC1', '89 to 90 °C'),
  ('Cc1c(Cl)s/c(=N\C(=O)c2cccc(C(F)(F)F)c2F)n1CC1CC1', '130 to 132 °C');

melting point measured on Cc1cc2s/c(=N\C(=O)c3ccccc3C)n(CC3CC3)c2cc1C = 160 to 161 °C

For this compound ( Cc1c(C(C)(C)C)s/c(=N\C(=O)c2cc(F)ccc2Br)n1CC1CC1 ), measured melting point is 92 to 94 °C

# melting point (compound: Cc1c(C(C)(C)C)s/c(=N\C(=O)c2ccc(F)c(F)c2F)n1CC1CC1 ) is 82 to 84 °C

###

biological target: human CB2 receptor (Homo sapiens, UniProt P34972); construct: expressed in transfected cells; assay: Human CB2 receptor binding inhibition test ([3H]CP-55,940, CHO membrane fractions); conditions: [3H]CP-55,940, membrane fractions of CHO cells stably expressing human CB2 receptor, 25° C., 2 hours; read-out: CB2 IC50 (Inhibition of binding to human CB2 receptor)
READOUT NAME: IC50
Give me the value, and tack the unit on after it.

Below: 5 compounds and their reported IC50.
INSERT INTO measurements (sample_smiles, measured_target, result) VALUES
  ('Cc1cc(C)c(S(=O)(=O)/N=c2\sc(C(C)(C)C)c(C)n2CC2CC2)c(C)c1', 'human CB2 receptor (Homo sapiens, UniProt P34972)', '7.1 nM'),
  ('CC(C)(C)c1nn(CC2CC2)/c(=N/C(=O)c2cccc(C(F)(F)F)c2F)s1', 'human CB2 receptor (Homo sapiens, UniProt P34972)', '15.4 nM'),
  ('CCn1c(C)c(C(C)(C)C)s/c1=N\C(=O)c1ccc(F)cc1Br', 'human CB2 receptor (Homo sapiens, UniProt P34972)', '11.4 nM'),
  ('CCn1c(C)c(C(C)(C)C)s/c1=N\C(=O)c1cc(I)ccc1F', 'human CB2 receptor (Homo sapiens, UniProt P34972)', '12.1 nM'),
  ('Cc1c(C(C)(C)C)s/c(=N\C(=O)c2cc(F)ccc2Br)n1CC1CC1', 'human CB2 receptor (Homo sapiens, UniProt P34972)', '0.5 nM');

Looking up CCc1ccccc1C(=O)/N=c1\sc(C(C)(C)C)c(C)n1CC , I see its IC50 listed as 15 nM

The measured IC50 associated with COCCn1c(C)c(C(C)(C)C)s/c1=N\C(=O)c1cccc(OC(F)(F)C(F)F)c1 reads 5.2 nM

Field IC50 (entry Cc1cc/c(=N\C(=O)c2cccc(C(F)(F)F)c2F)n(CC2CC2)c1 ) reads 7.5 nM

// IC50 value for O=C(/N=c1\sc2ncccc2n1CC1CC1)c1cccc(C(F)(F)F)c1F : 17 nM

// recorded IC50 for Cc1s/c(=N\C(=O)c2ccccc2C(F)(F)F)n(CC2CC2)c1C : 4.6 nM

Entry under test: COCCn1c(C)c(C(C)(C)C)s/c1=N\C(=O)c1cccc(Br)c1 . Its IC50 was 12.7 nM

Record Cc1c(C(C)(C)C)s/c(=N\C(=O)CCC(F)(F)F)n1CC1CC1 . Reported IC50: 5.5 nM

Memo: CCn1c(C)c(C(C)(C)C)s/c1=N\C(=O)c1cc(F)c(F)cc1Cl , reported IC50: 8.4 nM

Lab book: IC50 of Cc1c(C(C)(C)C)s/c(=N\C(=O)c2ccnc3ccccc23)n1CC1CC1 noted as 6.2 nM

// IC50 lookup, compound = Cc1c(C(C)(C)C)s/c(=N\C(=O)c2cccc(C#N)c2)n1CC1CC1 , result: 12 nM

Value of IC50 reported for the compound Cn1c(C(C)(C)C)c/c(=N\C(=O)c2cccc(Cl)c2Cl)n1CC1CCCC1 is 2.7 nM
